B1: Pre-mRNA-processing factor 40 homolog B, residues 274 to 332; numbered along this chain, Q6NWY9 (parent)
chain: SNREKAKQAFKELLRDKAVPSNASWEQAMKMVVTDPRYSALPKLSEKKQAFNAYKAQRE

# Variants of: B1
# experiment_description: abundance fitness (aPCA) (normalised: wild type 0, dead -1); higher = more abundant; growth selection in yeast, the domain comes from the species named
# experimental_context: Homo sapiens
experimental_endpoint: abundance fitness

Some solved entries appear below for comparison.
residue_change	result
K30A	-0.061
A23K	-0.459
Q8Y	-0.49
A50E	-0.224
A40W	-0.588

Give one value of abundance fitness per listed variant.
1. L41A
2. K30C

**A:**
1. -0.451
2. -0.423

Count: 4. Required value per item: abundance fitness.
1. V33A
2. Q49P
3. Q27W
4. E26S

**A:**
1: 0.141; 2: -0.574; 3: -1; 4: -0.229

Each variant below has a reported value. Please supply its abundance fitness.
1. K30W
2. L41P
3. P42L
4. T34R
5. W25S
6. S21T
7. S24H

**A:**
1: -0.999; 2: -0.295; 3: -0.287; 4: -0.257; 5: -0.13; 6: 0.06; 7: -0.344

Quick request: abundance fitness for each listed item, please.
1. L14S
2. N2W

**A:**
1. -0.384
2. -0.276

Would you be so kind as to report abundance fitness for each listed record?
1. E26W
2. K7C
3. L14C

**A:**
1: -0.598; 2: -0.276; 3: -0.483

Give me abundance fitness for each of these variants, listed below.
1. A50F
2. Q49G
3. K5L
4. N22T
5. K17H
6. A40D
7. E46Q

**A:**
[-0.485, -0.343, -0.177, -0.014, -0.239, -0.739, -0.147]

Look at each variant and report its abundance fitness.
1. R58C
2. Q57V
3. A40V
4. R15F
5. D16M

**A:**
[0.26, -0.257, -0.075, 0.019, -1.03]

Okay, here is my list. What is abundance fitness for each of these?
1. T34S
2. S45G
3. D35R
4. V33M
5. R37F
6. Y38S
7. R15W
8. N22W

**A:**
0.003
-0.265
-1.12
0.171
-0.905
-0.293
-0.106
-0.063
